Examples of compounds with documented T/C follow.
Test system: CD2F1 mice, L1210 leukemia ip, survival T/C
Test: NCI In Vivo Anticancer Drug Screen. Data for tumor model L1210 Leukemia (intraperitoneal) in CD2F1 (CDF1) mice
Settings: endpoint: mean survival time; dose: 25.0 mg/kg/injection; schedule: Q01DX001 (ip); vehicle: saline; higher = longer survival
Inconclusive results and toxic doses are left out.

Past entries and their recorded results:
- CN(C)CCC(=O)c1ccco1: 104 % of control
- CN(C)CCNCc1ccc2c(c1)OCO2: 102 % of control
- CS(=O)(=O)OCCCNCCCOS(C)(=O)=O: 110 % of control

Then there is this compound:
I would be grateful if you could share the reported T/C for O=P1(NCCCl)OCCCN1CCCl (centres undefined) .
102 % of control

----------
Test system: CD2F1 mice, L1210 leukemia ip, survival T/C
Experiment: NCI In Vivo Anticancer Drug Screen. Data for tumor model L1210 Leukemia (intraperitoneal) in CD2F1 (CDF1) mice
Settings: endpoint: mean survival time; dose: 12.5 mg/kg/injection; schedule: Q01DX005 (ip); vehicle: distilled water + Tween-80; higher = longer survival
Inconclusive results and toxic doses are left out.
Here the recorded T/C is given for each entry.

• CC(=O)/C=C/Sc1n[nH]c(=O)[nH]c1=O = 106 % of control
• CC(O)C1OC(n2cnc3c(N)ncnc32)CC1N (centres undefined) = 101 % of control
• Nc1ncnc2c1nc(NCc1ccccc1)n2C1OC(CO)C(O)C1O (centres undefined) = 93 % of control

From here, focus on the item given below.
Need T/C, item CCCCC(Sc1nn(C2OC(COC(=O)c3ccccc3)C(OC(=O)c3ccccc3)C2OC(=O)c2ccccc2)c(=O)[nH]c1=O)C(=O)OCC (centres undefined)
101 % of control

----------
System: CD2F1 mice, L1210 leukemia ip, survival T/C
Experiment: NCI In Vivo Anticancer Drug Screen. Data for tumor model L1210 Leukemia (intraperitoneal) in CD2F1 (CDF1) mice
Conditions: endpoint: mean survival time; dose: 150.0 mg/kg/injection; schedule: Q01DX001 (ip); vehicle: other; higher = longer survival
Inconclusive results and toxic doses are left out.
Measurement label: T/C

Use these answered entries as a reference point.
* CCN(CC)CCC(CN(C)C)C(C)=O (stereo not given) | 103 % of control
* CCCCCCCN=NC | 100 % of control
* CCOC(=O)CCCC/C(C)=N\N=C(C(C)C)C(C)C | 97 % of control
* CCCCCCC(=O)O.[Pb] | 97 % of control

Now turn to the next compound.
Test system CD2F1 mice, L1210 leukemia ip, survival T/C; read-out T/C; what value for CCN(CCP(c1ccccc1)c1ccccc1)CCP(c1ccccc1)c1ccccc1 ?
110 % of control

----------
Test system: CD2F1 mice, L1210 leukemia ip, survival T/C
Experiment: NCI In Vivo Anticancer Drug Screen. Data for tumor model L1210 Leukemia (intraperitoneal) in CD2F1 (CDF1) mice
Conditions: endpoint: mean survival time; dose: 50.0 mg/kg/injection; schedule: Q01DX009 (ip); vehicle: water; higher = longer survival
Inconclusive results and toxic doses are left out.
Measurement label: T/C

- COc1cc2c(cc1OC)C(N)CCC2 (stereo not given): 98 % of control
- NNC(=O)c1ccc(-c2ccccc2)cc1: 102 % of control
- COc1cc2ccc(/C=C\[N+](=O)[O-])cc2cc1OC: 96 % of control
- O=C1NC(CN2CCOCC2)C(=O)NC1CN1CCOCC1 (stereo not given): 101 % of control

From here, focus on the item given below.
Provide value of T/C for this record tested with CD2F1 mice, L1210 leukemia ip, survival T/C: Nc1nc(N)c2nc(-c3ccc(Cl)c(Cl)c3)c(N)nc2n1
108 % of control

----------
System: CD2F1 mice, L1210 leukemia ip, survival T/C
Experiment: NCI In Vivo Anticancer Drug Screen. Data for tumor model L1210 Leukemia (intraperitoneal) in CD2F1 (CDF1) mice
Details: endpoint: mean survival time; dose: 200.0 mg/kg/injection; schedule: Q04DX003 (ip); vehicle: saline with Tween-80; higher = longer survival
Inconclusive results and toxic doses are left out.
Measured T/C values are reported for all entries that follow.

Fill blank: measured T/C of the molecule CCOC(=O)c1ccc(NC(=O)NC(Cc2ccccc2)c2ccccc2)cc1 (configuration not stated) is ____.
101 % of control

// same read-out, input: CC(NC(=O)OCc1ccccc1)C(=O)O (configuration not stated)
105 % of control

Ok, now CC(=O)SC(Cc1ccccc1)(Cc1ccccc1)SC(C)=O
95 % of control

Also check Nc1cccc(CCCCc2cccc(S(=O)(=O)F)c2)c1
95 % of control

Proceed to CN(CC(=O)O)C(=S)c1ccccc1
104 % of control

----------
Test system: CD2F1 mice, L1210 leukemia ip, survival T/C
Assay: NCI In Vivo Anticancer Drug Screen. Data for tumor model L1210 Leukemia (intraperitoneal) in CD2F1 (CDF1) mice
Conditions: endpoint: mean survival time; dose: 100.0 mg/kg/injection; schedule: Q01DX009 (ip); vehicle: water; higher = longer survival
Inconclusive results and toxic doses are left out.
compounds and their reported T/C

Please report the recorded T/C for CCCCCCCCN(C)S(=O)(=O)CCCC .
103 % of control

----------
System: CD2F1 mice, L1210 leukemia ip, survival T/C
Experiment: NCI In Vivo Anticancer Drug Screen. Data for tumor model L1210 Leukemia (intraperitoneal) in CD2F1 (CDF1) mice
Settings: endpoint: mean survival time; dose: 150.0 mg/kg/injection; schedule: Q01DX001 (ip); vehicle: saline; higher = longer survival
Inconclusive results and toxic doses are left out.
Quick list: T/C per entry.

* COc1ccc(C(=O)/C=C/c2ccc(N(C)C)cc2)cc1 | 93 % of control

Entry under review: CC(=O)C(N=Nc1cccc2c1C(=O)c1ccccc1C2=O)C(=O)Nc1ccccc1C (stereo unspecified) . Reported T/C?
93 % of control

// query: CCC(C)NCCO (stereo unspecified)
104 % of control

What about this molecule? ClC1C(Cl)(Cl)C1(Cl)Cl
95 % of control

Moving on to CCCCN=C1C(=O)Nc2ccccc21
97 % of control

And for Cc1cc(=O)[nH]c(-n2nc(N)nc2N)n1 ?
101 % of control

----------
Test system: CD2F1 mice, L1210 leukemia ip, survival T/C
Assay: NCI In Vivo Anticancer Drug Screen. Data for tumor model L1210 Leukemia (intraperitoneal) in CD2F1 (CDF1) mice
Conditions: endpoint: mean survival time; dose: 200.0 mg/kg/injection; schedule: Q01DX005 (ip); vehicle: water; higher = longer survival
Toxic doses and inconclusive results are not listed.
Entries annotated with measured T/C

- Cc1cc(C(O)CNC(C)CCn2cnc3c2c(=O)n(C)c(=O)n3C)ccc1O (stereo unspecified): 93 % of control
- O=c1ccn(C2OC(CO)C(F)(CO)C2O)c(=O)[nH]1 (stereo unspecified): 105 % of control

Look up T/C for this compound: CCSC(C(O)C(O)C(O)C(O)CO)n1cnc2c(SC)ncnc21 (stereo unspecified)
94 % of control

Further, for NC(=O)c1n[nH]c(C2OC(COP(=O)(O)O)C(O)C2O)n1 (stereo unspecified) ?
96 % of control

Quick one: CCOC(=O)Nc1ccc2nnn(C3OC(CO)C(O)C3O)c2n1 (stereo unspecified)
94 % of control

Quick one: Cc1nc(C(=O)O)c(C)c(=O)[nH]1
87 % of control

----------
System: CD2F1 mice, L1210 leukemia ip, survival T/C
Experiment: NCI In Vivo Anticancer Drug Screen. Data for tumor model L1210 Leukemia (intraperitoneal) in CD2F1 (CDF1) mice
Settings: endpoint: mean survival time; dose: 12.5 mg/kg/injection; schedule: Q01DX009 (ip); vehicle: saline; higher = longer survival
Inconclusive results and toxic doses are left out.
T/C values, listed per item

* CN(C)N=Nc1ccc(NC(N)=O)cc1 | 111 % of control
* Nc1ncnc2c1ncn2C1OC(C(=O)OCCO)C(O)C1O (stereo not drawn) | 108 % of control
* CC(=O)NC(Cc1ccc(N(CCCl)CCCl)cc1)C(=O)O (stereo not drawn) | 118 % of control
* COC(=O)C(Cl)(Cl)N=Nc1c(Cl)cc(Cl)c(C)c1Cl | 98 % of control

Item O=C1C(O)=C(c2ccccc2)C(=O)C(O)=C1c1ccccc1 has what recorded T/C?
97 % of control

# iterate: Cc1cccc(N)n1 (tested in a mixture with another compound)
104 % of control

Next entry: O=[N+]([O-])O.[Sc]
90 % of control

Same question, NCCCNCCSP(=O)(O)O this time
95 % of control

----------
System: CD2F1 mice, L1210 leukemia ip, survival T/C
Experiment: NCI In Vivo Anticancer Drug Screen. Data for tumor model L1210 Leukemia (intraperitoneal) in CD2F1 (CDF1) mice
Settings: endpoint: mean survival time; dose: 200.0 mg/kg/injection; schedule: Q04DX002 (ip); vehicle: saline with Tween-80; higher = longer survival
Inconclusive results and toxic doses are left out.
Measurement label: T/C

Some solved entries appear below for comparison.
* COc1ccc(OC)c(N=C2C(=O)Nc3ccc(Br)cc32)c1 | 91 % of control
* COc1ccccc1NC(=O)Oc1cccc(C)c1 | 88 % of control
* CC1=C(/C=C/C(=O)O)C(C)(C)CCC1 | 96 % of control
* CCCCOC(=O)Cc1c(C)[nH]c2ccc(-c3ccccc3)cc12 | 97 % of control
* Nc1ccnc(SCc2ccc3ccccc3c2)n1 | 101 % of control

Now turn to the next compound.
Looking for the measured T/C of CCCCNC(=O)c1ccc2c(c1)C(=O)N(CCCC)C2=O , can you help?
104 % of control
